# TESTED SYSTEM: Telomerase reverse transcriptase (Homo sapiens) (UniProt O14746)
# Sequence (O14746 whole entry): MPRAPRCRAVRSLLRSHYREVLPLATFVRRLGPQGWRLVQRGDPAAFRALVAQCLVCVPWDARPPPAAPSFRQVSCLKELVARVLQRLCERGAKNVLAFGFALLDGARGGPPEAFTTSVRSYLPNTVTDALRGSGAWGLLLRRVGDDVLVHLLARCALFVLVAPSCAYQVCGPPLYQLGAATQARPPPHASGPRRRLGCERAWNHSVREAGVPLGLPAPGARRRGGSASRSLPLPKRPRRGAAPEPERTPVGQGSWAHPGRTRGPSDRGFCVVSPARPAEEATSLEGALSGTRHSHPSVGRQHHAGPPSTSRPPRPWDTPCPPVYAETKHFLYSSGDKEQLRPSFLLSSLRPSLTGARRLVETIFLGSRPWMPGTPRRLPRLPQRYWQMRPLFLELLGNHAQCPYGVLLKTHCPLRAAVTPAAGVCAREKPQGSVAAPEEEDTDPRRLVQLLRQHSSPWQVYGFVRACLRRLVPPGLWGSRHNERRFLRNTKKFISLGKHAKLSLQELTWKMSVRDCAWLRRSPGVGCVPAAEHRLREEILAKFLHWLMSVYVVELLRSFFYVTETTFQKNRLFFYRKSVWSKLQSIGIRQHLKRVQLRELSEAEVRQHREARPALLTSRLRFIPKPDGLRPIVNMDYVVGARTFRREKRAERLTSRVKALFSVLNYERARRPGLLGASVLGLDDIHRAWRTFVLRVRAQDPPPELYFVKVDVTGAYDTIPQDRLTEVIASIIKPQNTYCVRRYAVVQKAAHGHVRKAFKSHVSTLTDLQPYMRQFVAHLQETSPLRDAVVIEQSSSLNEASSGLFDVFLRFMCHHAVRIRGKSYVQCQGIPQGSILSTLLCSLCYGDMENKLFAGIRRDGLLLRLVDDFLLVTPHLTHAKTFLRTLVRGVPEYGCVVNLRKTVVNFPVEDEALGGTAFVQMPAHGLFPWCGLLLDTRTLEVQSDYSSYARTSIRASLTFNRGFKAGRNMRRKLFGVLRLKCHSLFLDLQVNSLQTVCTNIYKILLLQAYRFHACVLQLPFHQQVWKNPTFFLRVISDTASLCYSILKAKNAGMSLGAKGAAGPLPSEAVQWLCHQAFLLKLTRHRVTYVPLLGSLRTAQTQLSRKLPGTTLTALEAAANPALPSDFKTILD
# ASSAY TEXT: Inhibition of TERT in human H1299 cells assessed as residual transcriptional activity at 10 uM after 24 hrs by SEAP reporter gene assay; values are per cent of control
ASSAY METRIC: residual activity
Remember to quote the unit after the number.

Q) I would be grateful if you could share the reported residual activity for `CCCCc1nc2ccc3c(c2[nH]1)C(=O)c1ccccc1C3=O` .
A) 84%

Q) Subsequent entry: `CC(C)c1nc2ccc3c(c2[nH]1)C(=O)c1ccccc1C3=O`
A) 76%

Q) Subsequent entry: `CC1(C)Nc2ccc3c(c2N1)C(=O)c1ccccc1C3=O`
A) 73%

Q) Subsequent entry: CC1(c2ccccc2)Nc2ccc3c(c2N1)C(=O)c1ccccc1C3=O (centres undefined)
A) 97%
